Each entry below lists one item and its recorded DC50 value.
- ASSAY TARGET: HiBit-BRG1 fusion protein (Homo sapiens)
- Construct: expressed in transfected cells
- ASSAY OVERVIEW: HiBiT-BRG1 cell-based degradation assay (Nano-Glo HiBiT Lytic Detection, 24 h)
- STATED CONDITIONS: HeLa cells expressing HiBit-BRG1 and LgBit, read-out: BRG1 HiBit Degradation IC50
Where a name gives a salt, the structure may show the parent alone.
PROPERTY LABEL: DC50

INSERT INTO results (molecule, property_label, measurement) VALUES
  ('CS(=O)(=O)n1ccc(C(=O)N[C@@H](CCCCNC(=O)CCCCOc2cccc3c2C(=O)N(C2CCC(=O)NC2=O)C3=O)C(=O)Nc2nc(-c3ccccc3)cs2)c1 (stereo partly shown)', 'DC50', '> 10 µM'),
  ('CS(=O)(=O)n1ccc(C(=O)NCC(=O)Nc2nc(-c3cccc(-c4ccnc(OCCNC(=O)CCCCCCCCCCNc5cccc6c5C(=O)N(C5CCC(=O)NC5=O)C6=O)c4)c3)cs2)c1 (stereo not shown)', 'DC50', '> 10 µM'),
  ('CS(=O)(=O)n1ccc(C(=O)NCC(=O)Nc2nc(-c3cccc(-c4ccnc(C5(C(=O)N6CCN(CC7CCN(c8ccc9c(c8)C(=O)N(C8CCC(=O)NC8=O)C9=O)CC7)CC6)CC5)c4)c3)cs2)c1 (stereo not shown)', 'DC50', '< 0.1 µM'),
  ('COC(=O)N1CCCC(c2csc(NC(=O)[C@H](CCCCNC(=O)CCCCCCCCCCNc3cccc4c3C(=O)N(C3CCC(=O)NC3=O)C4=O)NC(=O)c3ccn(C(C)(C)C)c3)n2)C1 (stereo partly shown)', 'DC50', '> 10 µM'),
  ('CS(=O)(=O)n1ccc(C(=O)N[C@@H](COCc2ccc(CNC(=O)CCCCCCCCCCNc3cccc4c3C(=O)N(C3CCC(=O)NC3=O)C4=O)cc2)C(=O)Nc2nc(-c3ccccc3)cs2)c1 (stereo partly shown) [Compound 180]', 'DC50', '0.1 to 1 µM'),
  ('Cc1ncsc1-c1ccc(CNC(=O)[C@@H]2C[C@@H](O)CN2C(=O)[C@@H](NC(=O)NCc2cccc(-c3cccc(-c4csc(NC(=O)CNC(=O)c5ccn(S(C)(=O)=O)c5)n4)c3)c2)C(C)(C)C)cc1', 'DC50', '> 10 µM'),
  ('Cc1c(C(=O)NCC(=O)Nc2nc(-c3cccc(-c4ccnc(N(C)CC(=O)NCCCCCNc5cccc6c5C(=O)N(C5CCC(=O)NC5=O)C6=O)c4)c3)cs2)cn(S(=O)(=O)C(C)C)c1C (stereo not shown)', 'DC50', '> 10 µM'),
  ('CS(=O)(=O)n1ccc(C(=O)N[C@@H](CCOCCCC(=O)NCCOCCOCCOCCNC(=O)COc2cccc3c2C(=O)N(C2CCC(=O)NC2=O)C3=O)C(=O)Nc2nc(-c3ccccc3)cs2)c1 (stereo partly shown)', 'DC50', '> 10 µM'),
  ('Cc1ncsc1-c1ccc(CNC(=O)[C@@H]2C[C@@H](O)CN2C(=O)[C@@H](NC(=O)CCCCCCCCCCC(=O)NCCCC[C@H](NC(=O)c2ccn(S(C)(=O)=O)c2)C(=O)Nc2nc(-c3ccccc3)cs2)C(C)(C)C)cc1', 'DC50', '> 10 µM'),
  ('CS(=O)(=O)n1ccc(C(=O)N[C@@H](COCc2ccc(C(=O)N3CC(Oc4ccc5c(c4)C(=O)N(C4CCC(=O)NC4=O)C5=O)C3)cc2)C(=O)Nc2nc(-c3ccccc3)cs2)c1 (stereo partly shown)', 'DC50', '> 10 µM'),
  ('CN(CC(=O)NCCCCNc1ccc2c(c1)C(=O)N(C1CCC(=O)NC1=O)C2=O)c1cc(-c2cccc(-c3csc(NC(=O)CNC(=O)c4ccn(S(C)(=O)=O)c4)n3)c2)ccn1 (stereo not shown)', 'DC50', '> 10 µM'),
  ('CS(=O)(=O)n1ccc(C(=O)N[C@@H](CCOCCCC(=O)N2CCC(CN3CCN(c4ccc5c(c4)C(=O)N(C4CCC(=O)NC4=O)C5=O)CC3)CC2)C(=O)Nc2nc(-c3ccccc3)cs2)c1 (stereo partly shown) [Compound 220, formate]', 'DC50', '> 10 µM'),
  ('CS(=O)(=O)n1ccc(C(=O)N[C@@H](COCc2ccc(C(=O)N3CC4(CCN(CCCNc5ccc6c(c5)C(=O)N(C5CCC(=O)NC5=O)C6=O)CC4)C3)cc2)C(=O)Nc2nc(-c3ccccc3)cs2)c1 (stereo partly shown)', 'DC50', '0.1 to 1 µM'),
  ('CS(=O)(=O)n1ccc(C(=O)NCC(=O)Nc2nc(-c3cccc(-c4ccnc(OCCNC(=O)CCCOc5cccc6c5C(=O)N(C5CCC(=O)NC5=O)C6=O)c4)c3)cs2)c1 (stereo not shown)', 'DC50', '> 10 µM'),
  ('CS(=O)(=O)n1ccc(C(=O)N[C@@H](CCOCCCC(=O)NCCOCc2cccc(COCCOc3ccc4c(c3)C(=O)N(C3CCC(=O)NC3=O)C4=O)c2)C(=O)Nc2nc(-c3ccccc3)cs2)c1 (stereo partly shown)', 'DC50', '> 10 µM'),
  ('CS(=O)(=O)n1ccc(C(=O)NCC(=O)Nc2nc(-c3cccc(-c4ccnc(C5(C(=O)NCC6CCN(CCOc7ccc8c(c7)C(=O)N(C7CCC(=O)NC7=O)C8=O)CC6)CC5)c4)c3)cs2)c1 (stereo not shown)', 'DC50', '0.1 to 1 µM'),
  ('CS(=O)(=O)n1ccc(C(=O)N[C@@H](COCc2ccc(C(=O)NCCOCCOCCNC(=O)COc3cccc4c3C(=O)N(C3CCC(=O)NC3=O)C4=O)cc2)C(=O)Nc2nc(-c3ccccc3)cs2)c1 (stereo partly shown)', 'DC50', '> 10 µM'),
  ('CS(=O)(=O)n1ccc(C(=O)NCC(=O)Nc2nc(-c3cccc(-c4ccnc(N5CCN(C(=O)CCOCCOCCOc6cccc7c6C(=O)N(C6CCC(=O)NC6=O)C7=O)CC5)c4)c3)cs2)c1 (stereo not shown)', 'DC50', '0.1 to 1 µM'),
  ('CS(=O)(=O)n1ccc(C(=O)N[C@@H](COCc2ccc(C(=O)N3CC(COc4cccc5c4C(=O)N(C4CCC(=O)NC4=O)C5=O)C3)cc2)C(=O)Nc2nc(-c3ccccc3)cs2)c1 (stereo partly shown)', 'DC50', '> 10 µM');

====

- ASSAY TARGET: HiBit-BRG1 fusion protein (Homo sapiens, UniProt P51532)
- Construct: expressed in transfected cells
- Sequence (P51532 whole entry, the tested form may be a part): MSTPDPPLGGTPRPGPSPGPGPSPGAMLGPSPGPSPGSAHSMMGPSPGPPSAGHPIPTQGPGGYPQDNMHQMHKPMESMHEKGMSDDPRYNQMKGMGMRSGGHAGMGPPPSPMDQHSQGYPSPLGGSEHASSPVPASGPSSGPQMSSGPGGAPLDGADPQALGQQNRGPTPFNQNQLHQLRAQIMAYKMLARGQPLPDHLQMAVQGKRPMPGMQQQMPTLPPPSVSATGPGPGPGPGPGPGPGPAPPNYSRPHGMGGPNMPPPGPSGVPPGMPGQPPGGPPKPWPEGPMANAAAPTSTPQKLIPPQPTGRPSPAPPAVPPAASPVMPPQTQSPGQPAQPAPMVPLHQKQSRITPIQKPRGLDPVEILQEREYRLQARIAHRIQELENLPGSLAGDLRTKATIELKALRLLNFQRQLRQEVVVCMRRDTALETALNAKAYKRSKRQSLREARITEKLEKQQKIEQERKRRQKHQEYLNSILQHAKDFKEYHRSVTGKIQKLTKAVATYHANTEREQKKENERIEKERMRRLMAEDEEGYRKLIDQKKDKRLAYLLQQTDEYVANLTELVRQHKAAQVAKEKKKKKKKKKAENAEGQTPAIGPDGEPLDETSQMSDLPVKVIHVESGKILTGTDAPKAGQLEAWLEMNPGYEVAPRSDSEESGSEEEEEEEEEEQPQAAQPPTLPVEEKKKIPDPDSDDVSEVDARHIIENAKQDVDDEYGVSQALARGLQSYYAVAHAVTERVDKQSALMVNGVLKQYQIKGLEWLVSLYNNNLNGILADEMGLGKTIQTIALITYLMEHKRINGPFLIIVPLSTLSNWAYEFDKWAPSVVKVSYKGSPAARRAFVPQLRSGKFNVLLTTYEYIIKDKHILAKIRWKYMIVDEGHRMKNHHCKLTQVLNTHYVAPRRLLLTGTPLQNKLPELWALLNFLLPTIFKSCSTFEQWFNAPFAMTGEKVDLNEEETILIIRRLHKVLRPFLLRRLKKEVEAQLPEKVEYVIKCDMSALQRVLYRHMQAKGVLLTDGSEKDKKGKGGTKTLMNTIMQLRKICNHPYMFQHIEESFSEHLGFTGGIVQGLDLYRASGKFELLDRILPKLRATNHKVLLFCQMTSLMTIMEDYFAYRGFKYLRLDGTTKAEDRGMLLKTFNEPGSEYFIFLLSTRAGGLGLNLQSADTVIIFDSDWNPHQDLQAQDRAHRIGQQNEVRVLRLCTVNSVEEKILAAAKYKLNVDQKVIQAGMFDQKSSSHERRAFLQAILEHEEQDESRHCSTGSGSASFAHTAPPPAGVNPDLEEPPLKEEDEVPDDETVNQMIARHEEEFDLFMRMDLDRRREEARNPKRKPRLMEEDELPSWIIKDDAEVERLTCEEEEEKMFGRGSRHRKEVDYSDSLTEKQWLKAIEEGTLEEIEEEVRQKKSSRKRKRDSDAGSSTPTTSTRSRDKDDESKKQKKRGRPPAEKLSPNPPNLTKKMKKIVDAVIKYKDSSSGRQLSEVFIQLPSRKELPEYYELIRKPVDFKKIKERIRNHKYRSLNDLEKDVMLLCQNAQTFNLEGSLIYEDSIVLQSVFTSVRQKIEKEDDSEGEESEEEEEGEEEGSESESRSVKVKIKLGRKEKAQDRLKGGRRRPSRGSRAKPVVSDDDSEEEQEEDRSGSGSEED
- ASSAY OVERVIEW: HiBiT-BRG1 cell-based degradation assay (Nano-Glo HiBiT Lytic Detection, 24 h)
- STATED CONDITIONS: HeLa, HeLa cells expressing HiBit-BRG1 and LgBit, top dose 30 μM, read-out: BRG1 HiBit Degradation Maximum measured
Where a name gives a salt, the structure may show the parent alone.
Each entry below lists one item and its recorded Dmax value.
PROPERTY LABEL: Dmax

INSERT INTO results (compound, property_label, measurement) VALUES
  ('CS(=O)(=O)n1ccc(C(=O)N[C@@H](COCCCC(=O)NCCOc2ccc3c(c2)C(=O)N(C2CCC(=O)NC2=O)C3=O)C(=O)Nc2nc(-c3ccccc3)cs2)c1 (stereo partly shown)', 'Dmax', '< 50%'),
  ('Cc1ncsc1-c1ccc(CNC(=O)[C@@H]2C[C@@H](O)CN2C(=O)[C@@H](NC(=O)CCCCCCCCCCCCCCCC(=O)NCc2cccc(-c3cccc(-c4csc(NC(=O)CNC(=O)c5ccn(S(C)(=O)=O)c5)n4)c3)c2)C(C)(C)C)cc1', 'Dmax', '< 50%'),
  ('CS(=O)(=O)n1ccc(C(=O)NCC(=O)Nc2nc(-c3cccc(-c4ccnc(N5CCN(c6ccc7c(c6)C(=O)N(C6CCC(=O)NC6=O)C7=O)CC5)c4)c3)cs2)c1 (stereo not shown) [Compound 165, trifluoroacetate]', 'Dmax', '< 50%'),
  ('CS(=O)(=O)n1ccc(C(=O)N[C@@H](CCOCCCC(=O)NCCCCCCNc2ccc3c(c2)C(=O)N(C2CCC(=O)NC2=O)C3=O)C(=O)Nc2nc(-c3ccccc3)cs2)c1 (stereo partly shown)', 'Dmax', '< 50%'),
  ('COC(=O)N1CCCC(c2csc(NC(=O)[C@H](CCCCNC(=O)CCCCCCCCCCNc3cccc4c3C(=O)N(C3CCC(=O)NC3=O)C4=O)NC(=O)c3ccn(C(C)(C)C)c3)n2)C1 (stereo partly shown)', 'Dmax', '< 50%'),
  ('CS(=O)(=O)n1ccc(C(=O)NCC(=O)Nc2nc(-c3cccc(-c4ccnc(C5(C(=O)NCCOCCOCCNC(=O)COc6cccc7c6C(=O)N(C6CCC(=O)NC6=O)C7=O)CC5)c4)c3)cs2)c1 (stereo not shown)', 'Dmax', '< 50%'),
  ('CS(=O)(=O)n1ccc(C(=O)NCC(=O)Nc2nc(-c3cccc(-c4ccnc(C5(C(=O)N6CC(CCOc7cccc8c7C(=O)N(C7CCC(=O)NC7=O)C8=O)C6)CC5)c4)c3)cs2)c1 (stereo not shown)', 'Dmax', '< 50%'),
  ('Cc1ncsc1-c1ccc(CNC(=O)[C@@H]2C[C@@H](O)CN2C(=O)[C@@H](NC(=O)CCCCCCC(=O)NCc2cccc(-c3cccc(-c4csc(NC(=O)CNC(=O)c5ccn(S(C)(=O)=O)c5)n4)c3)c2)C(C)(C)C)cc1', 'Dmax', '> 75%'),
  ('CS(=O)(=O)n1ccc(C(=O)NCC(=O)Nc2nc(-c3cccc(-c4ccnc(OCCNC(=O)CCOCCOCCNc5cccc6c5C(=O)N(C5CCC(=O)NC5=O)C6=O)c4)c3)cs2)c1 (stereo not shown)', 'Dmax', '50 to 75%'),
  ('Cc1ncsc1-c1ccc(CNC(=O)[C@@H]2C[C@@H](O)CN2C(=O)[C@@H](NC(=O)CCC(=O)NCCOc2cc(-c3cccc(-c4csc(NC(=O)CNC(=O)c5ccn(S(C)(=O)=O)c5)n4)c3)ccn2)C(C)(C)C)cc1', 'Dmax', '< 50%');
